# target.under.test: HLA-A*11:01
# procedure.summary: IEDB peptide-MHC binding, purified MHC/competitive/fluorescence; bounds were set here for any values at or beyond the usual limits of such assays
# run.parameters: source organism: Gorilla gorilla gorilla

>  <ordered.residues>
RYSHWTKL

>  <IC50>
≥ 20 µM

$$$$

----------
# target.under.test: HLA-A*30:02
# procedure.summary: IEDB peptide-MHC binding, purified MHC/competitive/radioactivity; filed as Kd, often an IC50 or EC50 that approximates it; bounds were set here for any values at or beyond the usual limits of such assays
# run.parameters: source organism: Mammarenavirus lassaense
pKd: −log10 of the molar value.

>  <ordered.residues>
QYNLSHSYAV

>  <target.under.test>
HLA-A*30:02

>  <pKd>
5.48

$$$$

----------
# target.under.test: HLA-A*31:01
# procedure.summary: IEDB peptide-MHC binding, purified MHC/competitive/fluorescence; filed as Kd, often an IC50 or EC50 that approximates it; bounds were set here for any values at or beyond the usual limits of such assays
# run.parameters: source organism: Bacillus cereus G9241
pKd: −log10 of the molar value.

>  <ordered.residues>
MLYDRINLR

>  <target.under.test>
HLA-A*31:01

>  <pKd>
8.47

$$$$

----------
# target.under.test: HLA-B*46:01
# procedure.summary: IEDB peptide-MHC binding, purified MHC/direct/fluorescence; filed as Kd, often an IC50 or EC50 that approximates it; bounds were set here for any values at or beyond the usual limits of such assays
# run.parameters: source organism: Influenza A virus (A/mallard/NZ/1/97(H5N2))
pKd: −log10 of the molar value.

>  <ordered.residues>
IAGFIEGGW

>  <target.under.test>
HLA-B*46:01

>  <pKd>
≤ 4.70

$$$$

----------
# target.under.test: HLA-C*15:02
# procedure.summary: IEDB peptide-MHC binding, purified MHC/direct/fluorescence; filed as Kd, often an IC50 or EC50 that approximates it; bounds were set here for any values at or beyond the usual limits of such assays
# run.parameters: source organism: Burkholderia mallei NCTC 10229
pKd: −log10 of the molar value.

>  <ordered.residues>
RTFGQPLFF

>  <target.under.test>
HLA-C*15:02

>  <pKd>
8.30

$$$$

----------
# target.under.test: HLA-A*11:01
# procedure.summary: IEDB peptide-MHC binding, purified MHC/competitive/fluorescence; bounds were set here for any values at or beyond the usual limits of such assays
# run.parameters: source organism: Zaire ebolavirus
recorded.metric: IC50

>  <ordered.residues>
VYRDHSEKK

>  <assay.result>
33.2 µM

$$$$
>  <ordered.residues>
FYWPVMNHK

>  <assay.result>
4.52 µM

$$$$

----------
Measured Kd by item
# target.under.test: HLA-B*35:01
# procedure.summary: IEDB peptide-MHC binding, purified MHC/competitive/radioactivity; filed as Kd, often an IC50 or EC50 that approximates it; bounds were set here for any values at or beyond the usual limits of such assays
# run.parameters: source organism: Dengue virus 4 Philippines/H241/1956

>  <ordered.residues>
LPLPWAAGAD

>  <Kd / µM>
4.14

$$$$
>  <ordered.residues>
TPQPKPGTRM

>  <Kd / µM>
0.177

$$$$
>  <ordered.residues>
IAVSTANIF

>  <Kd / µM>
0.151

$$$$
>  <ordered.residues>
MPPLRFLGED

>  <Kd / µM>
15.2

$$$$

----------
Measured pKd by item
# target.under.test: HLA-B*08:03
# procedure.summary: IEDB peptide-MHC binding, purified MHC/direct/fluorescence; filed as Kd, often an IC50 or EC50 that approximates it; bounds were set here for any values at or beyond the usual limits of such assays
# run.parameters: source organism: Variola virus
pKd: −log10 of the molar value.
recorded.metric: pKd

>  <ordered.residues>
SLFTEQAFY

>  <assay.result>
≤ 4.70

$$$$
>  <ordered.residues>
IHIPGDTLF

>  <assay.result>
≤ 4.70

$$$$

----------
# target.under.test: HLA-A*02:06
# procedure.summary: IEDB peptide-MHC binding, purified MHC/competitive/radioactivity; filed as Kd, often an IC50 or EC50 that approximates it; bounds were set here for any values at or beyond the usual limits of such assays
# run.parameters: source organism: Hepacivirus hominis
pKd: −log10 of the molar value.

>  <ordered.residues>
RPALVFDITK

>  <pKd>
4.91

$$$$

----------
# target.under.test: HLA-A*02:01
# procedure.summary: IEDB peptide-MHC binding, purified MHC/direct/fluorescence; filed as Kd, often an IC50 or EC50 that approximates it; bounds were set here for any values at or beyond the usual limits of such assays
# run.parameters: source organism: Campylobacter jejuni

>  <ordered.residues>
VSIRGSHHK

>  <target.under.test>
HLA-A*02:01

>  <Kd>
≥ 20 µM

$$$$

----------
# target.under.test: HLA-A*03:01
# procedure.summary: IEDB peptide-MHC binding, purified MHC/competitive/fluorescence; filed as Kd, often an IC50 or EC50 that approximates it; bounds were set here for any values at or beyond the usual limits of such assays
# run.parameters: source organism: Giardia intestinalis ATCC 50581

>  <ordered.residues>
GLYLYRFHV

>  <target.under.test>
HLA-A*03:01

>  <Kd>
≥ 20 µM

$$$$

----------
# target.under.test: HLA-A*33:01
# procedure.summary: IEDB peptide-MHC binding, purified MHC/competitive/radioactivity; filed as Kd, often an IC50 or EC50 that approximates it; bounds were set here for any values at or beyond the usual limits of such assays
# run.parameters: source organism: Dengue virus 1 Nauru/West Pac/1974
pKd: −log10 of the molar value.

>  <ordered.residues>
VTLFFLSGR

>  <pKd>
7.01

$$$$

----------
# target.under.test: HLA-B*35:01
# procedure.summary: IEDB peptide-MHC binding, purified MHC/competitive/radioactivity; filed as Kd, often an IC50 or EC50 that approximates it; bounds were set here for any values at or beyond the usual limits of such assays
# run.parameters: source organism: Dengue virus 1 Singapore/S275/1990
pKd: −log10 of the molar value.
recorded.metric: pKd

>  <ordered.residues>
LPVLLGSLGC

>  <assay.result>
5.69

$$$$

----------
# target.under.test: HLA-B*18:01
# procedure.summary: IEDB peptide-MHC binding, purified MHC/direct/fluorescence; filed as Kd, often an IC50 or EC50 that approximates it; bounds were set here for any values at or beyond the usual limits of such assays
# run.parameters: source organism: Francisella tularensis subsp. holarctica LVS
pKd: −log10 of the molar value.

>  <ordered.residues>
EFKRRLKDL

>  <pKd>
≤ 4.70

$$$$

----------
# target.under.test: HLA-A*03:01
# procedure.summary: IEDB peptide-MHC binding, purified MHC/direct/fluorescence; filed as Kd, often an IC50 or EC50 that approximates it; bounds were set here for any values at or beyond the usual limits of such assays
# run.parameters: source organism: Influenza A virus (A/equine/New York/1/1999(H3N8))
recorded.metric: Kd

>  <ordered.residues>
VAGGTSSVY

>  <recorded.metric>
Kd

>  <assay.result>
≥ 20 µM

$$$$

----------
# target.under.test: HLA-B*51:01
# procedure.summary: IEDB peptide-MHC binding, purified MHC/competitive/fluorescence; filed as Kd, often an IC50 or EC50 that approximates it; bounds were set here for any values at or beyond the usual limits of such assays
# run.parameters: source organism: Entamoeba histolytica HM-1:IMSS

>  <ordered.residues>
RSLVCLAPK

>  <Kd>
≥ 20000 nM

$$$$
>  <ordered.residues>
MPYHGYHII

>  <Kd>
91 nM

$$$$

----------
Measured Kd by item
# target.under.test: HLA-A*02:01
# procedure.summary: IEDB peptide-MHC binding, purified MHC/direct/fluorescence; filed as Kd, often an IC50 or EC50 that approximates it; bounds were set here for any values at or beyond the usual limits of such assays
# run.parameters: source organism: Giardia lamblia ATCC 50803

>  <ordered.residues>
IVKYKQYLK

>  <target.under.test>
HLA-A*02:01

>  <Kd>
≥ 20 µM

$$$$
>  <ordered.residues>
SVFHEHIFK

>  <target.under.test>
HLA-A*02:01

>  <Kd>
≥ 20 µM

$$$$
>  <ordered.residues>
ASSWAPTQK

>  <target.under.test>
HLA-A*02:01

>  <Kd>
≥ 20 µM

$$$$

----------
Measured pKd by item
# target.under.test: HLA-B*57:01
# procedure.summary: IEDB peptide-MHC binding, purified MHC/direct/fluorescence; filed as Kd, often an IC50 or EC50 that approximates it; bounds were set here for any values at or beyond the usual limits of such assays
# run.parameters: source organism: Camelpox virus M-96
pKd: −log10 of the molar value.

>  <ordered.residues>
SLFTEQAFY

>  <pKd>
≤ 4.70

$$$$
>  <ordered.residues>
IHIPGDTLF

>  <pKd>
≤ 4.70

$$$$

----------
# target.under.test: HLA-A*68:02
# procedure.summary: IEDB peptide-MHC binding, purified MHC/direct/fluorescence; filed as Kd, often an IC50 or EC50 that approximates it; bounds were set here for any values at or beyond the usual limits of such assays
# run.parameters: source organism: Francisella tularensis subsp. holarctica LVS
pKd: −log10 of the molar value.
recorded.metric: pKd

>  <ordered.residues>
EFKRRLKDL

>  <recorded.metric>
pKd

>  <assay.result>
≤ 4.70

$$$$
